- System: NCI-H226 lung
- MEASUREMENT_PROTOCOL: NCI tumour cell line growth inhibition, 48 h
QUANTITY_MEASURED: TGI

> print(dat)
                                   compound  reported.result
1  O=C(/C=C/c1ccc(OCCCCCCCCCCOc2ccc(/C=C/C(=O)c3ccc(Cl)cc3)cc2)cc1)c1ccc(Cl)cc1         > 100 µM
2  C=C/C(C)=C/[C@H](C)C(=O)C[C@H](O)CC1CC(=O)NC(=O)C1         > 100 µM
3  CN(C)CC1CCC/C(=C\c2ccc(N(C)C)cc2)C1=O (configuration not stated)            64 µM
4  COc1cc2c(-c3nc4cc(Cl)c(F)cc4s3)cc(=O)oc2c(C)c1OC          3.99 µM
5  N#Cc1[nH]c(=O)n(-c2ccc([N+](=O)[O-])cc2)c1N          > 10 µM
6  O=C(Cc1ccc(Cl)c(Cl)c1)NCCCN1CCN(CCCN2CCCCC2)CC1          42.4 µM
7      CCOc1ccc(NC(=O)Nc2cc(C(C)C)ccc2C)cc1          50.1 µM
